Tested on: Mycobacterium tuberculosis (H37Rv)
assay-text: Growth in liquid media in presence of test compound
Format: cell-based
test-parameters: 50 mg/L
measurement-type: Growth in the presence of test compound, M. tuberculosis

# annotated cases, reported Growth in the presence of test compound, M. tuberculosis shown
CC(N)C(=O)NC(CB1OC2CC3CC(C3(C)C)C2(C)O1)Cc1ccccc1 (stereo not shown) :: −
CC1(C)C2CC3OB(C(Cc4ccccc4)C(Cc4ccccc4)NC(=O)C(N)CCCCN)OC3(C)C1C2 (stereo not shown) :: −
C[C@H](N)C(=O)NC[C@H](Cc1ccccc1)B(O)O :: ±
Cl.Cl.NCCCC[C@H](N)C(=O)NC[C@@H](Cc1ccc(OC(F)(F)F)cc1)B(O)O :: ±
CC1(C)C2CC3OB([C@@H](CNC(=O)[C@H](N)CCCCN)Cc4ccccc4)O[C@]3(C)C1C2 (stereo partly shown) :: −

Sample C[C@H](N)C(=O)NC[C@@H](Cc1ccc(OC(F)(F)F)cc1)B1OC2CC3CC(C3(C)C)[C@@]2(C)O1.Cl (stereo partly shown) ; Growth in the presence of test compound, M. tuberculosis observed: −

Sample N[C@@H](Cc1ccccc1)C(=O)NC[C@@H](Cc1ccccc1)[B-](F)(F)F.[K+] ; Growth in the presence of test compound, M. tuberculosis observed: −

Sample CC1(C)C2CC3OB(CC(Cc4ccccc4)NC(=O)C(N)Cc4c[nH]c5ccccc45)OC3(C)C1C2 (stereo not shown) ; Growth in the presence of test compound, M. tuberculosis observed: ±

Sample CC1(C)C2CC3OB(CC(Cc4ccccc4)NC(=O)C(N)CCCNC(=N)N)OC3(C)C1C2 (stereo not shown) ; Growth in the presence of test compound, M. tuberculosis observed: −

Sample CC(CB1OC2CC3CC(C3(C)C)C2(C)O1)NC(=O)C(N)CCCCN (stereo not shown) ; Growth in the presence of test compound, M. tuberculosis observed: +

Sample CC1(C)C2CC3OB(C[C@@H](Cc4ccccc4)NC(=O)[C@H](Cc4ccccc4)NC(=O)[C@@H](N)Cc4ccccc4)O[C@]3(C)C1C2.Cl (stereo partly shown) ; Growth in the presence of test compound, M. tuberculosis observed: −

====

Tested on: Mycobacterium tuberculosis (H37Rv)
assay-text: Growth in liquid media in presence of test compound
Format: cell-based
test-parameters: 5 mg/L
measurement-type: Growth in the presence of test compound, M. tuberculosis

CC1(C)C2CC3OB([C@H](CCc4ccccc4)CNC(=O)[C@@H](N)Cc4ccccc4)O[C@]3(C)C1C2 (stereo partly shown) [Compound 18] :: +
C[C@H](CNC(=O)[C@@H](N)CCCCN)B1OC2CC3CC(C3(C)C)[C@@]2(C)O1 (stereo partly shown) [Compound 16] :: +
CC1(C)C2CC3OB(C(CNC(=O)C(N)CCCCN)Cc4ccc(OC(F)(F)F)cc4)OC3(C)C1C2.Cl.Cl (stereo not shown) [Compound 47] :: +
CC(B1OC2CC3CC(C3(C)C)C2(C)O1)C(Cc1ccccc1)NC(=O)C(N)CCCCN (stereo not shown) [Compound 30] :: +
CC(NC(=O)C(N)CCCCN)C(Cc1ccccc1)B1OC2CC3CC(C3(C)C)C2(C)O1 (stereo not shown) [Compound 26] :: −
CC(B1OC2CC3CC(C3(C)C)C2(C)O1)C(Cc1ccccc1)NC(=O)C(Cc1ccccc1)NC(=O)C(N)CCCCN (stereo not shown) [Compound 36] :: +

Attention now shifts to the item below.
Param item: Cl.Cl.NCCCC[C@H](N)C(=O)NC[C@@H](Cc1ccc(F)cc1)B(O)O [Compound 46] ; param system: Mycobacterium tuberculosis (H37Rv); output Growth in the presence of test compound, M. tuberculosis: −
